Lab note: log10 Ki readings collected with Mu-type opioid receptor (Cavia porcellus, UniProt P97266) for the following compounds.
Sequence (P97266 whole entry): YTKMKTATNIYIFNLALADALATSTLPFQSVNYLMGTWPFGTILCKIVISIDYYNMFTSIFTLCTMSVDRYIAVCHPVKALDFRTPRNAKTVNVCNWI
Transform log10 | Measure Ki | Unit nM

These solved cases illustrate the format of a correct answer.
compound: CC(C)CN1CC[C@]23CCCC[C@H]2[C@H]1Cc1cc(O)ccc13
study.system: Mu-type opioid receptor (Cavia porcellus, UniProt P97266)
log10 Ki: -0.27
--
compound: CCOCCN1CC[C@]23CCCC[C@H]2[C@H]1Cc1cc(O)ccc13
study.system: Mu-type opioid receptor (Cavia porcellus, UniProt P97266)
log10 Ki: -0.59
--
compound: Oc1ccc2c(c1)C[C@@H]1[C@@H]3CCCCC23CCN1Cc1cccs1
study.system: Mu-type opioid receptor (Cavia porcellus, UniProt P97266)
log10 Ki: 0.18
--
compound: Oc1ccc2c(c1)C[C@@H]1[C@@H]3CCCC[C@]23CCN1CCC(O)c1ccco1 (some centres undefined)
study.system: Mu-type opioid receptor (Cavia porcellus, UniProt P97266)
log10 Ki: 0.62
--
compound: Oc1ccc2c(c1)C[C@@H]1[C@@H]3CCCC[C@]23CCN1Cc1ccccc1
study.system: Mu-type opioid receptor (Cavia porcellus, UniProt P97266)
log10 Ki: 1.30

Prompt: Which log10 Ki value is on record for Oc1ccc2c(c1)C[C@@H]1[C@@H]3CCCC[C@]23CCN1CCC(F)(F)F ?
Response: 0.36

Prompt: Form field: reported log10 Ki of Oc1ccc2c(c1)C[C@@H]1[C@@H]3CCCC[C@]23CCN1CCC(O)c1ccccc1 (some centres undefined)
Response: 1.32

Prompt: What does the record list as log10 Ki for O=C(CCN1CC[C@]23CCCC[C@H]2[C@H]1Cc1cc(O)ccc13)c1ccccc1 ?
Response: -0.37

Prompt: Given N#CCCCN1CC[C@]23CCCC[C@H]2[C@H]1Cc1cc(O)ccc13 , state its recorded log10 Ki.
Response: -0.80

* * *

Biological target: Opioid receptors; mu & kappa (Homo sapiens) (UniProt P41145+P35372)
Sequence (P35372 whole entry, looked up): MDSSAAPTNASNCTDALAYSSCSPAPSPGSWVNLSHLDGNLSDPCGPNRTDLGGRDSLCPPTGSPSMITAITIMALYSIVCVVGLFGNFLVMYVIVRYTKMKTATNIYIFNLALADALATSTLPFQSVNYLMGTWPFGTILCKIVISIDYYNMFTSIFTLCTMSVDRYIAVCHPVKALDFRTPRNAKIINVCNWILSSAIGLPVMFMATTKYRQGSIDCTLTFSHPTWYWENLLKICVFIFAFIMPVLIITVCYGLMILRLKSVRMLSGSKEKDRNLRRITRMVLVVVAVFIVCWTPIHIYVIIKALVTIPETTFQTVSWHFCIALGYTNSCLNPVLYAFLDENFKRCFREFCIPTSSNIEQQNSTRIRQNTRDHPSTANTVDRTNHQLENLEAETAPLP
Sequence (P41145 whole entry, looked up): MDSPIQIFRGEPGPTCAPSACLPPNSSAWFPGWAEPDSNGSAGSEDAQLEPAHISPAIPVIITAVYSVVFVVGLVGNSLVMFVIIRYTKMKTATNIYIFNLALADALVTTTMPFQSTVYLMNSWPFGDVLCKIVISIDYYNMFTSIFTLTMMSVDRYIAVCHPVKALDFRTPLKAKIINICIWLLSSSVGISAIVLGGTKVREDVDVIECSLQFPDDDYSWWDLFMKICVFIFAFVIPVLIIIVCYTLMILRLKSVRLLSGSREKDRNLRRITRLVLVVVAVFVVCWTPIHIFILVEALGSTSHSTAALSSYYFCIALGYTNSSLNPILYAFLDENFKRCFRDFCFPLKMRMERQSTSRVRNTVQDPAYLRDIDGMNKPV
Test: Selectivity ratio of kappa opioid receptor to that of mu opioid receptor in guinea pig brain membranes
Assay type: cell membranes
Conditions: Cavia porcellus; target entry is the homologue from another species
Please use yes (1) whenever Selectivity is not below 0.2, and no (0) whenever it is.

Examples from the recorded data:
given.smiles: Oc1ccc2c(c1)C[C@@H]1[C@@H]3CCCC[C@]23CCN1CCC(F)(F)F
study.system: Opioid receptors; mu & kappa (Homo sapiens) (UniProt P41145+P35372)
answer.label: yes (1)

given.smiles: Oc1ccc2c(c1)[C@@]13CCCC[C@H]1[C@@H](C2)N(CC1CCC1)CC3
study.system: Opioid receptors; mu & kappa (Homo sapiens) (UniProt P41145+P35372)
answer.label: yes (1)

given.smiles: O=C(CCN1CC[C@]23CCCC[C@H]2[C@H]1Cc1cc(O)ccc13)c1ccco1
study.system: Opioid receptors; mu & kappa (Homo sapiens) (UniProt P41145+P35372)
answer.label: no (0)

given.smiles: Oc1ccc2c(c1)C[C@@H]1[C@@H]3CCCCC23CCN1Cc1cccs1
study.system: Opioid receptors; mu & kappa (Homo sapiens) (UniProt P41145+P35372)
answer.label: yes (1)

Prompt: Identify whether the reported Selectivity of the following compound is 0.2 or greater: Oc1ccc2c(c1)C[C@@H]1[C@@H]3CCCC[C@]23CCN1CC=CI
Response: yes (1)

* * *

Target: Mu-type opioid receptor (Cavia porcellus)
measured.quantity: pKi
Recall that pKi is obtained by taking minus log10 of the concentration measured in molar.

Examples from the recorded data:
given.smiles: Oc1ccc2c(c1)C[C@@H]1[C@@H]3CCCC[C@]23CCN1CCOc1ccccc1
measured.quantity: pKi
result.number: 9.04
//
given.smiles: O=C(CCN1CC[C@]23CCCC[C@H]2[C@H]1Cc1cc(O)ccc13)c1ccco1
measured.quantity: pKi
result.number: 9.55
//
given.smiles: Oc1ccc2c(c1)C[C@@H]1[C@@H]3CCCCC23CCN1CC1CCCCC1
measured.quantity: pKi
result.number: 7.74

Would you kindly look at the next entry?
Prompt: // lookup pKi for Oc1ccc2c(c1)C[C@@H]1[C@@H]3CCCC[C@]23CCN1Cc1ccco1
Response: 9.27

* * *

Molecular target: Opioid receptors; delta & kappa (Homo sapiens) (UniProt P41145+P41143)
Sequence (P41143 whole entry, looked up, one chain of several): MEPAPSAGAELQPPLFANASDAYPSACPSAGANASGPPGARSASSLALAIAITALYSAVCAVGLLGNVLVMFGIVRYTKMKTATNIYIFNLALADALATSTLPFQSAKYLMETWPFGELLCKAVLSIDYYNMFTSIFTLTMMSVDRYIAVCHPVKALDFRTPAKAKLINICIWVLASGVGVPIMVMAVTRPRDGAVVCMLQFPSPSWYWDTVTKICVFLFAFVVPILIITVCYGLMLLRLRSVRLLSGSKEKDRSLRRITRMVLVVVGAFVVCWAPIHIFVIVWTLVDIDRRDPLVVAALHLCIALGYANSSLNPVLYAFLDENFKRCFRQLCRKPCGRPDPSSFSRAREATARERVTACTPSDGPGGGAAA
Assay: Selectivity ratio of kappa opioid receptor to that of delta opioid receptor in guinea pig brain membranes
Format: cell membranes
Conditions: Cavia porcellus; target entry is the homologue from another species
measured.quantity: Selectivity
Reply with the value as a number alone.

Consider the worked cases shown below.
compound: Oc1ccc2c(c1)C[C@@H]1[C@@H]3CCCC[C@]23CCN1CC=CI
Selectivity: 51

compound: Oc1ccc2c(c1)C[C@@H]1[C@@H]3CCCC[C@]23CCN1CCC(O)c1cccs1 (some centres not stated)
Selectivity: 4

compound: C=CCN1CC[C@]23CCCC[C@H]2[C@H]1Cc1cc(O)ccc13
Selectivity: 26

compound: C#CCN1CC[C@]23CCCC[C@H]2[C@H]1Cc1ccc(O)cc13
Selectivity: 210

compound: Oc1ccc2c(c1)C[C@@H]1[C@@H]3CCCC[C@]23CCN1CCC(O)c1ccccc1 (some centres not stated)
Selectivity: 2

Prompt: # returns recorded Selectivity (system: Opioid receptors; delta & kappa (Homo sapiens) (UniProt P41145+P41143)) for CCOCCN1CC[C@]23CCCC[C@H]2[C@H]1Cc1cc(O)ccc13
Response: 16

Prompt: Give the reported Selectivity for N#CCCN1CC[C@]23CCCC[C@H]2[C@H]1Cc1cc(O)ccc13 (system: Opioid receptors; delta & kappa (Homo sapiens) (UniProt P41145+P41143)).
Response: 11

Recorded values, source ChEMBL document CHEMBL1134817.
